Source listed as patent US20120321591A1.

# Assay system: T1, human angiopoietin-2 protein (human, UniProt O15123 19-496)
# T1 construct: also called Ang-2; Ang2
# T1 sequence (looked up): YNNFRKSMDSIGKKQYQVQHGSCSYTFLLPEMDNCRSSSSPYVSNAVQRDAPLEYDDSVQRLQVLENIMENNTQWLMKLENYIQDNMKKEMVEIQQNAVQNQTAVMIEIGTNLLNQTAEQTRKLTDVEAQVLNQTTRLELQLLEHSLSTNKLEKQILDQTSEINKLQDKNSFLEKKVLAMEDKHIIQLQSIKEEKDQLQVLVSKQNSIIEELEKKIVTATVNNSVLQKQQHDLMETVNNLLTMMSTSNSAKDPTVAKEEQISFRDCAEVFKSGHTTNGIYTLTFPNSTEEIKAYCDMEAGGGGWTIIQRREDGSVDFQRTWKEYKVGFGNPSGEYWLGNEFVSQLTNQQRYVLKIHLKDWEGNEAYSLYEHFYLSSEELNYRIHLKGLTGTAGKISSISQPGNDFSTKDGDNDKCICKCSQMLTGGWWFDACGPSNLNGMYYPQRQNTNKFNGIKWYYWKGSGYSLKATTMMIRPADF
# Experimental protocol: competitive ELISA: Tie-2-Fc binding to coated Ang-2; T
Where no end group is shown, it is not given here. [ ]: non-standard residue; d: D form. Phe(4-COOH) = N[C@@H](Cc1ccc(C(=O)O)cc1)C(=O)O; Bpa = N[C@@H](Cc1ccc(C(=O)c2ccccc2)cc1)C(=O)O; Hyp = O=C(O)[C@@H]1C[C@@H](O)CN1; 0P linker = not defined here; 4P linker = not defined here; ThA = not defined here
Can you tell me IC50 for the items I'm about to list?
Give bare numbers, in nM.

Look over these answered cases.
QNYQPLDELDKTL[Bpa]DQFMLQQG-NH2 (not fully specified (residue 11, N-terminus); also: N-terminal acyl cap, acyl not given here, also called 4056 T) [Compound 4056, peptide plus linker (T)] | 92.2
XQXYQPLDELDKTLYDQFMLQQG (Amido 2-PEG at N-terminus; C-terminal amino cap; Kac 2; 0P linker on K11, also called 4052 T) [Compound 4052, peptide plus linker (T)] | 134
QK(Ac)YQPLDEK(Ac)DKTL[Phe(4-COOH)]DQFMLQQG-NH2 (not fully specified (residue 11, N-terminus), also called 4062 T) [Compound 4062, peptide plus linker (T)] | 499
QXYQPLDELDXTLYDQFMLQQG (not fully specified; N-terminal acyl cap; C-terminal amino cap; Kac 2; 0P linker on Dap 11, also called 4055 T) [Compound 4055, peptide plus linker (T)] | 598

Please give IC50, item by item, for the list that follows.
1. QNYQPLDELDK(4P linker)TLYDQFMLQQG-NH2 (reading uncertain; also: N-terminal acyl cap, printed as QNY QPL DEL DK(4P)T LYD QFM LQQ G, also called 4025 T) [Compound 4025, peptide plus linker (T)]
2. QKYQPLDELDK(0P linker)TLYDQFMLQQG-NH2 (reading uncertain; also: N-terminal acyl cap, printed as QKY QPL DEL DK(0P)T LYD QFM LQQ G, also called 4027 T) [Compound 4027, peptide plus linker (T)]
3. QK(Ac)YQ[Hyp]LDE[ThA]DK(0P linker)TL[Phe(4-COOH)]DQFMLQQG-NH2 (not fully specified; reading uncertain; also: N-terminal acyl cap, acyl not given here, also called 4047 T) [Compound 4047, peptide plus linker (T)]
4. QXYQPLDELDKTXYDQFMLQQG (N-terminal acyl cap; C-terminal amino cap; Kac 2; 0P linker on K11; HF 13, also called 4039 T) [Compound 4039, peptide plus linker (T)]

Outgoing:
[300, 29, 43.3, 4890]
